Test: total protein half-life in vivo (active degradation + dilution); higher = more stable protein
Conditions: wild type E. coli NCM3722; growth: C-lim chemostat; doubling time 3 h
Reported total protein half-life in vivo values are given for each entry in this list.
Just the number please, in h, no unit attached.

Look over these answered cases.
MALLPDKEKLLRNFLRCANWEEKYLYIIELGQRLPELRDEDRSPQNSIQGCQSQVWIVMRQNAQGIIELQGDSDAAIVKGLIAVVFILYDQMTPQDIVNFDVRPWFEKMALTQHLTPSRSQGLEAMIRAIRAKAAALS = 3.39
MSSEKLYSPLKVGAITAANRIFMAPLTRLRSIEPGDIPTPLMAEYYRQRASAGLIISEATQISAQAKGYAGAPGIHSPEQIAAWKKITAGVHAENGHMAVQLWHTGRISHASLQPGGQAPVAPSALSAGTRTSLRDENGQAIRVETSMPRALELEEIPGIVNDFRQAIANAREAGFDLVELHSAHGYLLHQFLSPSSNHRTDQYGGSVENRARLVLEVVDAGIEEWGADRIGIRVSPIGTFQNTDNGPNEEADALYLIEQLGKRGIAYLHMSEPDWAGGEPYTDAFREKVRARFHGPIIGAGAYTVEKAETLIGKGLIDAVAFGRDWIANPDLVARLQRKAELNPQRAESFYGGGAEGYTDYPTL = 2.13
MAKYNEKELADTSKFLSFVLRHKPEAIGIVLDREGWADIDKLILCAQKAGKRLTRALLDTVVATSDKKRFSYSSDGRCIRAVQGHSTSQVAISFAEKTPPQFLYHGTASRFLDEIKKQGLIAGERHYVHLSADEATARKVGARHGSPVILTVKAQEMAKRGLPFWQAENGVWLTSTVAVEFLEW = 1.85
MSVTIQGNTSTVISNNSAPEGTSEIAKITRQIQVLTEKLGKISSEEGMTTQQKKEMAALVQKQIESLWAQLEQLLRQQAEKKNEDATVQPDKKEEKKDDTNTAGTIDIYV = 0.426
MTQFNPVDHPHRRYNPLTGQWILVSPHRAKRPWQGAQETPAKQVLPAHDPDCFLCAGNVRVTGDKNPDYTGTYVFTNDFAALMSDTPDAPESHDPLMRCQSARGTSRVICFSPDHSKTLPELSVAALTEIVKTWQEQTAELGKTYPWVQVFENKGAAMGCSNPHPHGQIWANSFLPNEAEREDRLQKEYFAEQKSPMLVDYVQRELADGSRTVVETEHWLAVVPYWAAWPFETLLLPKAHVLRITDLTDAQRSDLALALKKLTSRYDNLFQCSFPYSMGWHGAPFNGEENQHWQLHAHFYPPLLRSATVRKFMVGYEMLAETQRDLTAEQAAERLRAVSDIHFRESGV = 3.38

Per the record, MSEKVVFSQLSRKFIDENDATPAEAQQVVYYSLAIGHHLGVIDCLEAALTCPWDEYLAWIATLEAGSEARRKMEGVPKYGEIVIDINHVPMLANAFDKARAAQTSQQQEWSTMLLSMLHDIHQENAIYLMVRRLRD [P0AEV7] has total protein half-life in vivo of 2.34

According to the records, this sequence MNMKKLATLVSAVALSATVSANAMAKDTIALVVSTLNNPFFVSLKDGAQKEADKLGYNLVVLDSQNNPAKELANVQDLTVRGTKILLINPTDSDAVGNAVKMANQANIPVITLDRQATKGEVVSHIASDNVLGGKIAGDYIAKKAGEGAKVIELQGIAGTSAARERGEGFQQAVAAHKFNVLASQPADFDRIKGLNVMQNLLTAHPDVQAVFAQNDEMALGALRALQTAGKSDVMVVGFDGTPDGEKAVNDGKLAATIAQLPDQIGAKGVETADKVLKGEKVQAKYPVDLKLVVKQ displays total protein half-life in vivo of 3.27

// sample MSSRNNPARVAIVMGSKSDWATMQFAAEIFEILNVPHHVEVVSAHRTPDKLFSFAESAEENGYQVIIAGAGGAAHLPGMIAAKTLVPVLGVPVQSAALSGVDSLYSIVQMPRGIPVGTLAIGKAGAANAALLAAQILATHDKELHQRLNDWRKAQTDEVLENPDPRGAA [P0AG18] , its total protein half-life in vivo was 2.77

Reported total protein half-life in vivo ( MNNTPRYPQRVRNDLRFRELTVLRVERISAGFQRIVLGGEALDGFTSRGFDDHSKLFFPQPDAHFVPPTVTEEGIVWPEGPRPPSRDYTPLYDELRHELAIDFFIHDGGVASGWAMQAQPGDKLTVAGPRGSLVVPEDYAYQLYVCDESGMPALRRRLETLSKLAVKPQVSALVSVRDNACQDYLAHLDGFNIEWLAHDEQAVDARLAQMQIPADDYFIWITGEGKVVKNLSRRFEAEQYDPQRVRAAAYWHAK ) = 3.36

Recorded result, MRIGHGFDVHAFGGEGPIIIGGVRIPYEKGLLAHSDGDVALHALTDALLGAAALGDIGKLFPDTDPAFKGADSRELLREAWRRIQAKGYTLGNVDVTIIAQAPKMLPHIPQMRVFIAEDLGCHMDDVNVKATTTEKLGFTGRGEGIACEAVALLIKATK , total protein half-life in vivo: 2.87

Item: MSQNLDATAINQIHALISAQGVNEIISKIGADAVALPENFRIHDLEKFNLNRFRFRGALSTASIDDFTRYSKDLADEGTRCFIDADNMRAVSVLNLGTIDEPGHADNTATLKLKKTAPFSALLSVNGERNSQKSLAEWIEDWADYLVGFDANGDAIQATKAAAAIRKITIEANQTADFEDNDFSGKRSLMESVEAKTKDIMPVAFEFKCVPFEGLKERPFKLRLSIITGDRPVLVLRIIQLEAVQEDMANEFRDLLVEKFKDSKVETFIGTFTA | total protein half-life in vivo: 2.69

Form field total protein half-life in vivo, entry MMMGEVQSLPSAGLHPALQDALTLALAARPQEKAPGRYELQGDNIFMNVMTFNTQSPVEKKAELHEQYIDIQLLLNGEERILFGMAGTARQCEEFHHEDDYQLCSTIDNEQAIILKPGMFAVFMPGEPHKPGCVVGEPGEIKKVVVKVKADLMA : 2.61

Data origin: the supplement of paper PMC11246515
